system: Ubiquitin-conjugating enzyme E2 N (Homo sapiens) (UniProt P61088)
Sequence (P61088 whole entry, looked up): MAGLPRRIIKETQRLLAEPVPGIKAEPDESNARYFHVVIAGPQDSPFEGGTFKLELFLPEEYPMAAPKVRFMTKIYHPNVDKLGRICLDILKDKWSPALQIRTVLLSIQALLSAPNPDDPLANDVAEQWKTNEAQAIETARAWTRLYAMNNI
assay-procedure: UBC13 polyubiquitin chain formation inhibitors, primary screen, biochemical, TR-FRET, uHTS (AID 485273)
test-conditions: at 20 µM
Out of some 330,000 compounds screened, about 1,500 (0.45%) were called active. Cut-off read from the data, not from the text of the source: active = inhibition above about 45% (passing the limit was not always enough); inconclusive = no clear call, values can overlap the other calls. Only a selection was taken, and actives are over-represented in it overall.
Would you mind answering with one of these outcomes? active, inactive

### Prompt Please indicate how the test categorized N/C(=N\OC(=O)CCc1ccccc1)c1ccc(Cl)cc1 .
### Response inactive

### Prompt Hi, do you know how Cc1ccc(NC(=O)Cc2nnc(SCC(=O)Nc3nncs3)n2C)cc1 came out in this test?
### Response inactive

### Prompt Field: outcome | Entry: C=C1c2c(Cl)ccc(O)c2C(O)=C2C(=O)[C@]3(O)C(O)=C(C(N)=O)C(=O)[C@@H](N(C)C)[C@@H]3[C@@H](O)C12 (stereo not given in full)
### Response active

### Prompt Which outcome was entered for the compound CC(C)(C)NC(=O)C(c1ccc(Cl)cc1)N(CCO)C(=O)c1snc(C(N)=O)c1N (stereo not given) in this test?
### Response inactive

### Prompt Lab log entry: CNc1nccc(-c2ccc(Cl)cc2)c1C#N — outcome as called in the assay?
### Response inactive

### Prompt Called result for c1ccc(C[C@H]2CNCCN2CCC23CC4CC(CC(C4)C2)C3)cc1
### Response active

### Prompt Please let me know the test result on file for Cc1ccc(C(C(=O)NCC2CCCO2)N(C(=O)c2snc(C(N)=O)c2N)c2ccc(C(C)C)cc2)o1 (stereo not given) .
### Response active

### Prompt Given c1ccc(C2CNCc3c2ccc2ccccc32)cc1 (stereo not given) , state the outcome it received in this test.
### Response inactive

### Prompt Dear all, I need the recorded test outcome for CCOc1ccc(N(C(=O)c2snc(C(N)=O)c2N)C(C(=O)NCC2CCCO2)c2c[nH]c3ccccc23)cc1 (stereo not given) , thank you.
### Response active

### Prompt Per the assay record, what outcome was assigned to CCN(CC)CCNC(=O)c1ccc(NC(=O)c2cc(-c3ccncc3)nc3ccccc23)cc1 ?
### Response active

### Prompt Can you look up the reported call for O=C(COc1ccc(Br)cc1F)NCC1(N2CCCCC2)CCCCC1 for me?
### Response inactive

### Prompt I'd appreciate the recorded outcome for CCN(CC(=O)NCc1cccs1)C(=O)c1cccc(S(=O)(=O)Nc2ccccc2OC)c1 from this test.
### Response active

### Prompt I would be grateful if you could indicate the recorded call for CC(C)(C)CN1C(=O)C(=O)NC[C@H]1Cc1cccc2ccccc12 .
### Response inactive

### Prompt Can you look up the reported call for C#CCOCCOCCOCCNc1nc(N2CCN(C(=O)CCCCCCCCCCNC(=O)[C@H]([C@@H](C)CC)n3cc(CCCCN=C(N)N)nn3)CC2)nc(N2CCN(C(=O)CCCCCCCCCCNC(=O)[C@H](CO)n3cc(CCCSC)nn3)CC2)n1 for me?
### Response active

### Prompt Which outcome was assigned to CCN(CC(=O)NCc1cccs1)C(=O)c1ccccc1F in this test?
### Response inactive

### Prompt Tell me the recorded outcome of this test for O=C(NCc1ccco1)c1ccc(NS(=O)(=O)c2cccc([N+](=O)[O-])c2)cc1 .
### Response inactive

### Prompt Kindly provide the recorded test outcome for the following compound: CCN(CC(=O)NCc1cccs1)C(=O)c1ccc(OC)c(S(=O)(=O)N2CCOCC2)c1
### Response inactive

### Prompt Kindly provide the recorded test outcome for the following compound: O=C(Nn1cnnc1)c1cc(Cl)ccc1Cl
### Response inactive

### Prompt Each compound tested received a call. Report the one for C#CCOCCOCCOCCNc1nc(N2CCN(C(=O)[C@H](C(C)C)n3cc(CCO)nn3)CC2)nc(N2CCN(C(=O)[C@H]([C@@H](C)CC)n3cc(CCCN=C(N)N)nn3)CC2)n1 .
### Response inactive

### Prompt Outcome? O=C(COc1ccc2ccc(=O)oc2c1)NCC(O)c1ccccc1 (stereo not given)
### Response inactive

----------
system: Ubiquitin-conjugating enzyme E2 N (Homo sapiens) (UniProt P61088)
assay-procedure: UBC13 polyubiquitin chain formation inhibitors, primary screen, biochemical, TR-FRET, uHTS (AID 485273)
test-conditions: at 20 µM
In all, about 330,000 compounds went through this assay and about 1,500 (0.45%) were called active. Rule as the data show it: active = inhibition above about 45% (passing the limit was not always enough); inconclusive = no clear call, values can overlap the other calls. This excerpt belongs to a sample that is enriched for actives.
Hello, when you answer, please use one of the following outcomes: active, inactive

### Prompt Tell me the assay call for C=CCNCCCCOc1ccccc1 please.
### Response inactive

### Prompt Hey, what did the test say about Cc1cccc(-n2cnc(C(=O)NNC(=S)Nc3ccccc3)c2)n1 ?
### Response active

### Prompt Assay result, entry O=C(COC(=O)Cn1cnc2ccccc2c1=O)NCc1ccccc1Cl — outcome?
### Response active

### Prompt Please share the test call associated with CC(=O)c1ccc(OCCN2CCOCC2)cc1 .
### Response inactive

### Prompt What classification did COc1ccc(S(=O)(=O)NNC(=O)Nc2ccc(C)cc2)c(OC)c1 end up with in this test?
### Response inactive

### Prompt GET /call?item= Cc1cccc(Cn2cnc3c(N)c(C)c(C)cc32)c1 returns the recorded outcome of this test.
### Response inactive

### Prompt // return assay outcome for Cc1ccc(Oc2cc(NC(=O)CCCn3nc(C)c([N+](=O)[O-])c3C)cc([N+](=O)[O-])c2)cc1
### Response inactive

### Prompt # outcome recorded in this test, key = CCCn1c(SCC(=O)Nc2cccc(C(=O)OCC)c2)nnc1-c1ccoc1C
### Response inactive

### Prompt In this assay, the call recorded for COc1ccccc1N1CCN(C(=O)c2cc(=O)c3cc(C)cc(C)c3o2)CC1 was what?
### Response inactive

### Prompt Outcome logged for c1ccc(-c2ccc(OCCN3CCOCC3)cc2)cc1 in this assay:
### Response inactive

### Prompt Can you look up the reported call for CC(=O)N1C(=O)/C(=C2\SC(=S)N(NC(=O)c3ccc(O)cc3)C2=O)c2ccccc21 for me?
### Response inactive

### Prompt Could you kindly confirm the outcome this assay logged for O=C(COC(=O)Cn1cnc2ccccc2c1=O)NCC12CC3CC(CC(C3)C1)C2 ?
### Response inactive

### Prompt Which result was noted for this compound in the test: Cc1ccc(NC2=C(Cl)C(=O)OC2OC(=O)c2ccccc2C)cc1 (centres undefined)
### Response active

### Prompt Entry Cn1c(CCC(=O)OCC(=O)NCc2ccccc2Cl)nc(=O)c2ccccc21 : call = ?
### Response inactive

### Prompt Could you check what this test reported for CC(C)NC(=O)C(c1ccc(F)cc1)N(C(=O)CCC(=O)Nc1ccccn1)c1ccccc1F (centres undefined) ?
### Response inactive

### Prompt Kindly provide the recorded test outcome for the following compound: CC(C)n1cnc2c(Nc3cccc(Cl)c3)nc(N(CCO)CCCO)nc21
### Response active

### Prompt Please share the test call associated with Cn1c(C(=O)NCCc2ccsc2)cc2c(=O)n(C)c3ccccc3c21 .
### Response inactive

### Prompt What did the test return for CCOC(=O)c1ccc(COC(=O)CCc2nc(-c3ccccc3)c(-c3ccccc3)o2)cc1 ?
### Response inactive

### Prompt I would be grateful if you could indicate the recorded call for O=C(Nc1cccc(C(=O)NC2CC2)c1)c1ccc(F)c(S(=O)(=O)N2CCOCC2)c1 .
### Response inactive

### Prompt GET /call?item= CCOC(=O)c1ccccc1NC(=O)COC(=O)C(Cc1c[nH]c2ccccc12)NC(C)=O (centres undefined) returns the recorded outcome of this test.
### Response inactive

### Prompt How did this test come out for O=C1OC(OC(=O)c2ccccc2Br)C(N2CCOCC2)=C1Cl (centres undefined) ?
### Response inactive

### Prompt What was the test verdict on Cc1cccc(-n2cnc(C(=O)Nc3cccnc3)c2)n1 ?
### Response inactive

### Prompt Name the outcome recorded for COc1ccccc1NC(=O)CSc1nnc(-c2ccoc2C)n1CCc1ccccc1 in the assay.
### Response active

### Prompt Tell me the assay call for Cc1ccccc1OCC(O)CN1CCN(c2ccccn2)CC1 (centres undefined) please.
### Response inactive

### Prompt Returns: the outcome recorded for COc1cccc(Cn2cnc3c([N+](=O)[O-])c(C)c(C)cc32)c1 in this assay.
### Response active

### Prompt Look up the recorded call for Cn1c(C(=O)NCCCN2CCN(c3cccc(Cl)c3)CC2)cc2c(=O)n(C)c3ccccc3c21 in this test.
### Response active

### Prompt Kindly provide the recorded test outcome for the following compound: Cc1ccc2c(c1)N(CC(=O)N1CCC(O)CC1)C(=O)CO2
### Response inactive

### Prompt Check the results log: what was the call for c1ccc(-c2ccccc2OCCN2CCCCC2)cc1 ?
### Response inactive

### Prompt Field: outcome | Entry: COc1ccc2sc(-c3ccccc3OC)c(-c3ccc(OCCN4CCCC4)cc3)c2c1
### Response active

### Prompt Each compound tested received a call. Report the one for CCCCCCCCCCOC(=O)Cn1c(COc2ccc(C)cc2)[n+](C)c2ccccc21 .
### Response inactive

### Prompt Which outcome did this test record for the compound COc1ccc(CNS(=O)(=O)c2ccc(NC(=O)N3CCCCC3)cc2)cc1 ?
### Response inactive

### Prompt Returns: the outcome recorded for c1ccc(CCC2=NCCn3cccc32)cc1 in this assay.
### Response inactive

### Prompt # lookup: test call for Cc1cccc(C(=O)OC(C)CN2CCN(C)CC2)c1 (centres undefined)
### Response inactive

### Prompt How did this test come out for COCCn1c(SCC(=O)Nc2ccccc2F)nc2c(c1=O)SCC2 ?
### Response inactive

### Prompt Please state the recorded outcome for this compound: CCCCn1c(N)c(N(CCOC)C(=O)c2cccc(OCc3ccccc3)c2)c(=O)[nH]c1=O
### Response inactive

### Prompt What was the test verdict on Oc1ccccc1-c1cc(-c2ccc(Cl)cc2)n[nH]1 ?
### Response inactive

### Prompt Look up the recorded call for Cc1cccc(C)c1OCC(O)CN1CCCCC1 (centres undefined) in this test.
### Response inactive

### Prompt Outcome logged for CC1(C)NC(=O)N(CC(=O)Nc2cc(C(F)(F)F)cc(C(F)(F)F)c2)C1=O in this assay:
### Response inactive

### Prompt Short answer needed: outcome of this test for O=c1c2c(ncn1Cc1ccccc1)nc1n2CCC1 ?
### Response inactive

### Prompt Called result for CCOC(=O)c1ccc(Nc2cc3ccccc3c(=O)[nH]2)cc1
### Response inactive

### Prompt Assay outcome for COc1ccccc1C(=O)N(C1=NC(C)CS1)c1ccc(Cl)cc1 (centres undefined) : what was it?
### Response inactive

### Prompt What did this assay record as the result for O=C(CN1CCN(c2ccc(F)cc2)CC1)Nc1cccc(C(F)(F)F)c1 ?
### Response inactive

### Prompt Per the records of this test, what outcome belongs to CN(C)c1ccnc2sc3c(=O)n(Cc4ccccc4)cnc3c12 ?
### Response active

### Prompt How did this test come out for COc1cc(NC(=O)c2ccc(CNc3c(N4CCCC4)c(=O)c3=O)cc2)cc(OC)c1OC ?
### Response inactive

Data credit: PubChem BioAssay AID485273
